Assay: Inhibition of rat intestinal sucrase
Measured metric: pIC50
// pIC50 here means minus log10 of the molar concentration (mol/L)

In: Given O=S(=O)([O-])O[C@@H](CO)[C@H](O)C[S@+]1C[C@@H](O)[C@H](O)[C@H]1CO [SALACINOL] , respond with its pIC50.
Out: 5.60

====

Test: Inhibition of rat intestinal maltase
Measured metric: pIC50
// pIC50 here means minus log10 of the molar concentration (mol/L)

In: Given O=S(=O)([O-])O[C@@H](CO)[C@H](O)C[S@+]1C[C@@H](O)[C@H](O)[C@H]1CO , respond with its pIC50.
Out: 5.02

Data origin, for the record: ChEMBL document CHEMBL1139923
